study_system: T1, human CD3E&G complex (Sino Biological Inc., CT041-H0305H) (human, UniProt P07766 23-126; P09693 23-116)
T1 construct: bought heterodimer; also called human CD3E&G antigen
T1 sequence (P07766 23-126, chain 1 of 2): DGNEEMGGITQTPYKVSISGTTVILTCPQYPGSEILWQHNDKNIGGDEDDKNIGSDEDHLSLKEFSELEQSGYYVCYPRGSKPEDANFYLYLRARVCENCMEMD
T1 sequence (P09693 23-116, chain 2 of 2): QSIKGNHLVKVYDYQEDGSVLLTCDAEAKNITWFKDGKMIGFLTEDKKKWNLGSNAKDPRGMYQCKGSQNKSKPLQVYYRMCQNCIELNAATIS
test_description: BLI, antibody on sensor
assay_metric: koff (s⁻¹)
Field: numeric (s⁻¹). Do not append units.

# get_value(readout='koff', item= hzsp34.88 (antibody, human IgG1, lambda, L234A L235A, V domains shown, CDR mutant of hzsp34.24; IgG1 L234A L235A, lambda) VH: EVQLVESGGGLVQPGGSLKLSCAASGFTFNTYAMNWVRQASGKGLEWVGRIRSKYNNYATYYADSVKDRFTISRDDSKSTLYLQMNSLKTEDTAVYYCARHGGFGQSYVSWFAYWGQGTTVTVSS VL: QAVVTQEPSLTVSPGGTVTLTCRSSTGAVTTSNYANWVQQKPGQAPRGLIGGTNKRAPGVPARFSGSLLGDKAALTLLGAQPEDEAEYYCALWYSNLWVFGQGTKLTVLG )
0.00205

Same read-out for hzsp34.82 (antibody, human IgG1, lambda, L234A L235A, V domains shown, CDR mutant of hzsp34.24; IgG1 L234A L235A, lambda) VH: EVQLVESGGGLVQPGGSLKLSCAASGFTFNTYAMNWVRQASGKGLEWVGRIRLKYNNYATYYADSVKDRFTISRDDSKSTLYLQMNSLKTEDTAVYYCARHGNFGQSYVSWFAYWGQGTTVTVSS VL: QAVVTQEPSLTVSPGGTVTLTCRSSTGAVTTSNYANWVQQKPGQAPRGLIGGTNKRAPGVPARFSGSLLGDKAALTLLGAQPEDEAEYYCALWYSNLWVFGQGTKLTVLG ?
0.00191

For hzsp34.87 (antibody, human IgG1, lambda, L234A L235A, V domains shown, CDR mutant of hzsp34.24; IgG1 L234A L235A, lambda) VH: EVQLVESGGGLVQPGGSLKLSCAASGFTFNTYAMNWVRQASGKGLEWVGRIRSKYNNYATYYADSVKDRFTISRDDSKSTLYLQMNSLKTEDTAVYYCARHYNFGQSYVSWFAYWGQGTTVTVSS VL: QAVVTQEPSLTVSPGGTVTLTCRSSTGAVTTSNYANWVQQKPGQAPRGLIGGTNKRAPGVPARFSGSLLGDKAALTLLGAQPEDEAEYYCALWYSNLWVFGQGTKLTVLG then?
0.000997
